Each recorded value in this set is attributed to patent US11214803B2.

Test system: Yap1 mRNA
Protocol Notes: Dose-dependent inhibition of human Yap1 in A-431 cells (Example 8, 10,000 cells per well, RTS4814)
Type: cell-based
Conditions: 500.0 nM; A-431 cells, 10,000 cells per well, free uptake, approximately 48 hours, RTS4814
Strand notation (5' to 3'): a small letter for the sugar, then the base; units joined by * are phosphorothioate-linked, units joined directly phosphodiester-linked; [ ] holds rarer units or linkages, { } end groups; capitals alone tell only the bases. k = constrained ethyl (cEt); [5mC] = 5-methylcytosine; d = 2'-deoxy (DNA)
Each item that follows carries a reported Yap1 mRNA, % UTC.

{"columns": ["Substance", "Yap1 mRNA, % UTC [% UTC]"],
 "data": [
  ["1074753 (kT*kA*k[5mC]*dA*dT*dT*dA*dG*dG*dA*dA*d[5mC]*dA*kA*kG*kG; antisense) [compound 1074753]", 6],
  ["1076430 (k[5mC]*kG*kT*dT*dA*dT*dA*dA*dG*dA*dT*dG*dT*kG*k[5mC]*kT; antisense) [compound 1076430]", 6],
  ["1074318 (antisense kG*kG*kA*dG*dA*dA*dT*dT*dT*dG*d[5mC]*dT*dG*kT*kG*k[5mC]) [compound 1074318]", 6]
]}

====

Documented YAP1 (% UT) across a set of substances
Test system: Yap1 mRNA
Protocol Notes: Antisense inhibition of human Yap1 in SNU-449 cells by modified oligonucleotides, single dose (Example 5, RTS36584)
Format: cell-based
Conditions: Table 48; Yap1 mRNA level relative to untreated control; modified oligonucleotides targeting SEQ ID NO.: 1 and 2
Strand notation (5' to 3'): a small letter for the sugar, then the base; units joined by * are phosphorothioate-linked, units joined directly phosphodiester-linked; [ ] holds rarer units or linkages, { } end groups; capitals alone tell only the bases. e = 2'-O-(2-methoxyethyl) (MOE); k = constrained ethyl (cEt); [5mC] = 5-methylcytosine; d = 2'-deoxy (DNA)
Reported Metric: YAP1 (% UT)

{"columns": ["Substance", "Tgt", "Reported Metric", "Number"],
 "data": [
  ["1197215 (antisense kA*kA*kG*dT*dG*dT*dA*dT*dG*dT*d[5mC]*dA*dG*kA*kA*kG) [Compound 1197215]", "Yap1 mRNA", "YAP1 (% UT)", 13],
  ["1198296 (kT*kT*kA*dG*dA*dG*dT*dA*dT*dG*dT*dG*kG*e[5mC]*kA*eA; antisense) [Compound 1198296]", "Yap1 mRNA", "YAP1 (% UT)", 29],
  ["1198348 (kT*kG*kT*dA*dA*dT*dA*dT*dT*dG*d[5mC]*dA*kA*eT*k[5mC]*eT; antisense) [Compound 1198348]", "Yap1 mRNA", "YAP1 (% UT)", 40],
  ["1198326 (kT*kT*kA*dG*dG*dA*dT*dG*d[5mC]*dA*dT*dG*kG*eT*kT*eT; antisense) [Compound 1198326]", "Yap1 mRNA", "YAP1 (% UT)", 84],
  ["1197205 (antisense kG*kA*k[5mC]*dA*dA*d[5mC]*dT*d[5mC]*dT*dT*dA*dT*dA*kT*kG*kG) [Compound 1197205]", "Yap1 mRNA", "YAP1 (% UT)", 67],
  ["1197214 (antisense kA*kG*kT*dG*dT*dA*dT*dG*dT*d[5mC]*dA*dG*dA*kA*kG*kA) [Compound 1197214]", "Yap1 mRNA", "YAP1 (% UT)", 5],
  ["1198321 (kT*kG*k[5mC]*dT*dT*dT*dG*dG*dA*dA*dG*dA*kT*e[5mC]*kT*eG; antisense) [Compound 1198321]", "Yap1 mRNA", "YAP1 (% UT)", 45],
  ["1198298 (kT*kA*kT*dT*dA*dG*dA*dG*dT*dA*dT*dG*kT*eG*kG*e[5mC]; antisense) [Compound 1198298]", "Yap1 mRNA", "YAP1 (% UT)", 23],
  ["1198300 (kT*kA*kT*dA*dT*dT*dA*dG*dA*dG*dT*dA*kT*eG*kT*eG; antisense) [Compound 1198300]", "Yap1 mRNA", "YAP1 (% UT)", 60],
  ["1198324 (kA*kT*kA*dG*dT*dG*d[5mC]*dT*dT*dT*dG*dG*kA*eA*kG*eA; antisense) [Compound 1198324]", "Yap1 mRNA", "YAP1 (% UT)", 53],
  ["1009395 (k[5mC]*kT*kG*dA*dG*dG*dT*dA*dT*dA*dA*d[5mC]*dT*kG*kG*kG; antisense) [Compound 1009395]", "Yap1 mRNA", "YAP1 (% UT)", 43],
  ["1198289 (kG*kG*kA*dA*dA*dT*dT*dG*dT*d[5mC]*dT*d[5mC]*kA*eT*kG*e[5mC]; antisense) [Compound 1198289]", "Yap1 mRNA", "YAP1 (% UT)", 12],
  ["1198315 (kT*kT*kA*dA*dG*d[5mC]*dA*d[5mC]*dT*dT*dT*dT*kA*e[5mC]*kA*eT; antisense) [Compound 1198315]", "Yap1 mRNA", "YAP1 (% UT)", 85],
  ["1197202 (antisense kA*k[5mC]*kT*d[5mC]*dT*dT*dA*dT*dA*dT*dG*dG*dT*kT*kT*kT) [Compound 1197202]", "Yap1 mRNA", "YAP1 (% UT)", 27],
  ["715487 (antisense kA*kT*kT*dA*d[5mC]*dT*dT*d[5mC]*dA*dT*dA*dG*d[5mC]*kT*kT*kA) [Compound 715487]", "Yap1 mRNA", "YAP1 (% UT)", 34],
  ["1198325 (kA*kG*kG*dA*dT*dG*d[5mC]*dA*dT*dG*dG*dT*kT*eT*kT*eT; antisense) [Compound 1198325]", "Yap1 mRNA", "YAP1 (% UT)", 34],
  ["1076439 (k[5mC]*kT*kT*dA*dT*dA*dT*dG*dG*dT*dT*dT*dT*kG*kT*kG) [Compound 1076439]", "Yap1 mRNA", "YAP1 (% UT)", 31],
  ["1198329 (kG*kA*kT*dT*dT*dA*dG*dG*dA*dT*dG*d[5mC]*kA*eT*kG*eG; antisense) [Compound 1198329]", "Yap1 mRNA", "YAP1 (% UT)", 36],
  ["1198285 (kA*kT*kT*dG*dT*d[5mC]*dT*d[5mC]*dA*dT*dG*d[5mC]*k[5mC]*eT*kT*eA; antisense) [Compound 1198285]", "Yap1 mRNA", "YAP1 (% UT)", 13],
  ["1197216 (antisense kA*kA*kA*dG*dT*dG*dT*dA*dT*dG*dT*d[5mC]*dA*kG*kA*kA) [Compound 1197216]", "Yap1 mRNA", "YAP1 (% UT)", 12],
  ["1198310 (kA*k[5mC]*kT*dT*dT*dT*dA*d[5mC]*dA*dT*dT*dA*kG*eG*kA*eA; antisense) [Compound 1198310]", "Yap1 mRNA", "YAP1 (% UT)", 28]
]}

====

System: Yap1 mRNA
Protocol Notes: Antisense inhibition of human Yap1 in SNU-449 cells by modified oligonucleotides, single dose (Example 5, RTS36584)
Type: cell-based
Conditions: Table 41; SNU-449 cells, 10,000 cells per well, free uptake, 2,000 nM modified oligonucleotide, approximately 48 hours; RTS36584; normalized to RIBOGREEN; Yap1 mRNA relative to untreated control cells
Protocol: Modified oligonucleotides with additional chemistry modifications were designed to target a Yap1 nucleic acid and were tested for their effect on Yap1 mRNA level in SNU-449 cells. […] After a treatment period of approximately 48 hours, RNA was isolated from the cells and Yap1 mRNA levels were measured by quantitative real-time RTPCR. […] Yap1 mRNA levels were normalized to total RNA content, as measured by RIBOGREEN®. […]
Strand notation (5' to 3'): a small letter for the sugar, then the base; units joined by * are phosphorothioate-linked, units joined directly phosphodiester-linked; [ ] holds rarer units or linkages, { } end groups; capitals alone tell only the bases. e = 2'-O-(2-methoxyethyl) (MOE); k = constrained ethyl (cEt); [5mC] = 5-methylcytosine; d = 2'-deoxy (DNA)
Reported Metric: YAP1 (% UTC)

{"columns": ["Substance", "Result"],
 "data": [
  ["1198788 (antisense kA*eA*kG*dT*dG*dT*dA*dT*dG*dT*d[5mC]*dA*eG*eA*kA*kG) [Compound 1198788]", "17 % UTC"],
  ["1198794 (antisense kA*eA*k[5mC]*dT*dT*dT*dA*dA*dA*dG*dT*dG*eT*eA*kT*kG) [Compound 1198794]", "74 % UTC"],
  ["1198644 (kT*kA*dT*dA*dT*dT*dA*dG*dA*dG*dT*dA*kT*eG*kT*eG; antisense) [Compound 1198644]", "73 % UTC"],
  ["1198668 (antisense kA*kT*dA*dG*dT*dG*d[5mC]*dT*dT*dT*dG*dG*kA*eA*kG*eA) [Compound 1198668]", "72 % UTC"],
  ["1198739 (k[5mC]*eA*k[5mC]*dT*dG*dA*dG*dG*dT*dA*dT*dA*eA*e[5mC]*kT*kG; antisense) [Compound 1198739]", "94 % UTC"],
  ["1198775 (k[5mC]*eA*kA*d[5mC]*dT*d[5mC]*dT*dT*dA*dT*dA*dT*eG*eG*kT*kT; antisense) [Compound 1198775]", "113 % UTC"]
]}
